target-or-test-system: human recombinant 5-HT2c receptor (Homo sapiens, UniProt P28335)
Sequence (P28335 33-458): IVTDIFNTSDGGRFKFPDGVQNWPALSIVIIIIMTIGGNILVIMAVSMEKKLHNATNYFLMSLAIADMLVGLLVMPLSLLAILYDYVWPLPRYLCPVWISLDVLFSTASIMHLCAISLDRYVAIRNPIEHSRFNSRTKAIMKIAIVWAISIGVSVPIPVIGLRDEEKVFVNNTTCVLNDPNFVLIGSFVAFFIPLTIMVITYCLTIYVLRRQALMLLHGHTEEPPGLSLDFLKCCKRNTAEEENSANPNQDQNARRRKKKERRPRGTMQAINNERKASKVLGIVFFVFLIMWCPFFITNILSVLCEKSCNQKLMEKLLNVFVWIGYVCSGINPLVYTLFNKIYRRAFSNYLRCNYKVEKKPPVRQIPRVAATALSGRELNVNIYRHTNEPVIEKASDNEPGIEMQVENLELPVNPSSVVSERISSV
test-description: FLIPR fluorescent Ca2+ mobilisation agonist assay in CHO K1 cells (Method 1)
assay-context: agonist affinity, FLIPR
Protocol: The compounds of the invention were evaluated for biological activity by measuring the agonist affinity (EC50) and efficacy (Emax) at the human recombinant 5-HT2c receptor expressed in CHO K1 cells, using a fluorescent based Ca^2+ mobilisation assay format compatible with FLIPR technology (Method 1). Additionally, the binding activity of a compound was determined by measuring its affinity for the human recombinant 5-HT2c receptor membranes from Swiss 3T3 cells (Method 2). […]
Where a name gives a salt, the structure may show the parent alone.
Below, each entry is listed with its recorded pEC50.
Convention used: pEC50 is expressed as -log10 of the molar concentration.

These recorded examples may help you get a feel for the data.
{"compound": "CC(CO)Nc1nc(Cc2ccccc2)nc2c1CCNCC2 (stereo not drawn) [Example 33, hydrochloride]", "measure": "pEC50", "recorded-result": 6.37}
{"compound": "CC(C)(C)OCCOc1nc(Cc2ccccc2)nc2c1CCNCC2", "measure": "pEC50", "recorded-result": 6.71}
{"compound": "CC(C)COc1nc(Cc2ccccc2)nc2c1CCNCC2", "measure": "pEC50", "recorded-result": 6.90}
{"compound": "CCCNc1nc(N(C)CC2CC2)nc2c1CCNCC2", "measure": "pEC50", "recorded-result": 6.35}
{"compound": "COc1nc(N(C)Cc2ccccc2)nc2c1CCNCC2", "measure": "pEC50", "recorded-result": 6.28}

Data request: Could you tell me which pEC50 is on file for CC(CN1CCOCC1)Oc1nc(Cc2ccccc2)nc2c1CCNCC2 (stereo not drawn) ?
Data returned: 6.52

Data request: Subsequent entry: `CCN(C)c1nc2c(c(NCC3CC3)n1)CCNCC2`
Data returned: 6.99

Data request: Thanks! And `c1ccc(C2(c3nc4c(c(N5CCOCC5)n3)CCNCC4)CC2)cc1` ?
Data returned: 6.30

Data request: And what about the compound OC1CCCN(c2nc(Cc3ccccc3)nc3c2CCNCC3)C1 (stereo not drawn) [Example 18, hydrochloride] ?
Data returned: 6.25

Data request: And what about the compound `C1Cc2nc(NC3CC3)nc(N3CCSCC3)c2CCN1` ?
Data returned: 6.61

Data request: `c1ccc(CCNc2nc(N3CCSCC3)nc3c2CCNCC3)cc1` , same question.
Data returned: 6.73

Data request: Field entry: `CN(CC1CC1)c1nc(N2CCSCC2)nc2c1CCNCC2`
Data returned: 7.12

Data request: What about this compound? OC1(CNc2nc(Cc3ccccc3)nc3c2CCNCC3)CCC1 [Example 41, hydrochloride]
Data returned: 7.24

Data request: Also `CCc1nc(Cc2ccccc2)nc2c1CCNCC2` ?
Data returned: 6.50

Data request: Can you handle CN(C)c1nc(N(C)Cc2ccccc2)nc2c1CCNCC2 [Example 14] next?
Data returned: 6.55

Data request: Okay, and `CCCCNc1nc(N2CCSCC2)nc2c1CCNCC2` ?
Data returned: 7.47

Data request: Try c1ccc(Cc2nc3c(c(OCC4CCCO4)n2)CCNCC3)cc1 (stereo not drawn) next.
Data returned: 7.77

Data request: Moving on to the next compound: `CNc1nc(N2CCSCC2)nc2c1CCNCC2`
Data returned: 7.94

Data request: What about this compound? `Fc1ccccc1Cc1ncc2c(n1)CCNCC2`
Data returned: 6.71

Data request: Do the same for `CCCCc1nc(Cc2ccccc2)nc2c1CCNCC2` please
Data returned: 6.56

Data request: Please do the same for `Cc1nc(Cc2ccccc2)nc2c1CCNCC2` as well.
Data returned: 6.75
